biological target: human glucagon receptor (GCGR) (Homo sapiens (Human), UniProt P47871); test: Inhibition of 125I-glucagon binding to membranes from HEK293 cells expressing the human glucagon receptor; settings: membranes of hGluc-1 HEK cells, 125I-glucagon 0.3 nM, 2 hours room temperature; IC50 converted to Ki; average if tested more than once
Sequence (P47871 26-477): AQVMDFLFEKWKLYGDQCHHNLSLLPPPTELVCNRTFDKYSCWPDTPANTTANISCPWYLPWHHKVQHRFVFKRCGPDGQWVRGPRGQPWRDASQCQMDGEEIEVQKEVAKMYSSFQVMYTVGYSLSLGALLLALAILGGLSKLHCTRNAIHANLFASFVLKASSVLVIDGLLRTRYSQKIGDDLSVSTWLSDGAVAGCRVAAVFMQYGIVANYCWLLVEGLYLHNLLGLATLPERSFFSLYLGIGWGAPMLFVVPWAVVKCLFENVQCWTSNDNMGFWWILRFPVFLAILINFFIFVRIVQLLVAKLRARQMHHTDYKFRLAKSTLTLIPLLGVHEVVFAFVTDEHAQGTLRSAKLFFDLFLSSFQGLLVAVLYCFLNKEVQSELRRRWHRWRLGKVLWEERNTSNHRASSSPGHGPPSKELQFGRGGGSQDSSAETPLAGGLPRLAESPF
endpoint label: Ki (nM)

CC(Nc1ccc(-c2ccc(F)cc2)cc1)c1ccc(Cl)cc1-c1ccc(C(=O)NCCC(=O)O)nc1 (centres unmarked) [Compound 155] : 235
O=C(O)CCNC(=O)c1ccc(-c2ccccc2CNc2ccc(-c3ccc(Cl)c(Cl)c3)cc2)cn1 [Compound 8] : 94.3
O=C(O)CCNC(=O)c1ccc(-c2cc(C(F)(F)F)c(Cl)cc2CNc2ccc(-c3ccc(Cl)cc3)c(Cl)c2)cn1 [Compound 78] : 24

[1] O=C(O)CCNC(=O)c1ccc(-c2cc(Cl)ccc2CNc2ccc(-c3ccc(Cl)c(C(F)(F)F)c3)c(Cl)c2)cn1 [Compound 169]
[2] O=C(O)CCNC(=O)c1ccc(-c2cc(Cl)ccc2CNc2ccc(-c3ccc(OC(F)(F)F)cc3)c(Cl)c2)cn1 [Compound 140]
[3] N#Cc1cc(NCc2cc(F)c(F)cc2-c2ccc(C(=O)NCCC(=O)O)nc2)ccc1-c1ccc(Cl)cc1F [Compound 111]
Inquiry: Returns the items ordered by Ki, from maximum to minimum. Ranked list of labels, please, in the requested order.
Reply text: 3, 1, 2

[I] O=C(O)CCNC(=O)c1ccc(-c2cc(C(F)(F)F)ccc2CNc2ccc(-c3ccc(C(F)(F)F)cc3Cl)c(Cl)c2)cn1 [Compound 42]
[II] O=C(O)CCNC(=O)c1ccc(-c2cc(F)c(F)cc2CNc2ccc(-c3ccc(Cl)cc3)cc2)cn1 [Compound 117]
Inquiry: Consider I and II . Which of these has its Ki at a higher number? Output the label that corresponds to your choice.
Reply text: II
(II: 43.5 nM, I: 16.5 nM)

[I] N#Cc1cc(NCc2cc(F)c(F)cc2-c2ccc(C(=O)NCCC(=O)O)nc2)ccc1-c1ccc(Cl)c(C(F)(F)F)c1 [Compound 113]
[II] CC(C)c1ccc(CNc2ccc(-c3ccc(F)cc3)cc2)c(-c2ccc(C(=O)NCCC(=O)O)nc2)c1 [Compound 158]
Inquiry: Identify the item whose Ki is the smaller number: I or II Pick one; state its label.
Reply text: II

[a] O=C(O)CCNC(=O)c1ccc(-c2cc(Cl)ccc2CNc2ccc(-c3ccc(F)c(Cl)c3)c(Cl)c2)cn1 [Compound 171]
[b] O=C(O)CCNC(=O)c1ccc(-c2ccc(Cl)cc2CNc2ccc(-c3ccc(Cl)cc3Cl)cc2)cn1 [Compound 5]
Inquiry: # min-compare on Ki between a and b Refer to your chosen item by its label in the answer.
Reply text: a

The values you see were collected from patent US8748624B2.
